Entries and their IC50 values follow.
Target: human PD-1 (Jurkat-PD-1 cells) / PE-labeled human PD-L1-Ig (Homo sapiens, UniProt Q15116)
Construct: expressed in transfected cells; host or cells: Jurkat cell line over-expressing human PD-1
Sequence (Q15116 25-288): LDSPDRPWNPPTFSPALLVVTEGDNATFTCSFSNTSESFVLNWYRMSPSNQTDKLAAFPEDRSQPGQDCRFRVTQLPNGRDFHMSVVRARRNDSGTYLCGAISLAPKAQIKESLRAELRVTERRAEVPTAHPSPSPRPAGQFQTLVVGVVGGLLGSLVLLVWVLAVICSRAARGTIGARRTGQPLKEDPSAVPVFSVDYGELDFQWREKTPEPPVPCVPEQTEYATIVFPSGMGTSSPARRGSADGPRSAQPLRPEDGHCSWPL
Assay: Jurkat-PD-1 Cell Binding High-Content Screening Assay (CBA); Jurkat hPD1-PDL1 assay
Settings: Jurkat cell line over-expressing human PD-1; PE-labeled PD-L1-Ig 20 nM final; compound incubated 2 hours at 37° C.; read-out: Jurkat HPD1-PDL1 IC50
Positions of bridges follow the written chain, without caps; N, C: chain ends. Non-standard residues stand in square brackets, D forms with d. Residues, ends and D or L forms follow the SMILES beside them. Bip = N[C@@H](Cc1ccc(-c2ccccc2)cc1)C(=O)O; Phe(3-OMe) = COc1cccc(C[C@H](N)C(=O)O)c1; NMeA = CN[C@@H](C)C(=O)O; Dap = NC[C@H](N)C(=O)O
# value in µM; strip the unit string

- MOLECULE: "CC(C)C[C@@H]1NC(=O)[C@H](Cc2c[nH]c3ccccc23)NC(=O)[C@H](CC(=O)O)NC(=O)[C@H](Cc2ccc(O)cc2)NC(=O)[C@H](Cc2ccccc2)NC(=O)CSC[C@@H](C(=O)NCC(N)=O)NC(=O)[C@H]([C@@H](C)O)NC(=O)[C@H](C(C)C)NC(=O)[C@H](CC(C)C)NC(=O)[C@H](CC(N)=O)NC(=O)[C@H]2CCCN2C(=O)[C@H](CN)NC(=O)[C@H](C(C)C)NC(=O)[C@H](Cc2ccc(-c3ccccc3)cc2)NC1=O [Example 1404] ({CH2CO}-FYDWL[Bip]V[Dap][dP]NLVTCG-NH2; thioether N-14)"
  MEASUREMENT TARGET: "human PD-1 (Jurkat-PD-1 cells) / PE-labeled human PD-L1-Ig (Homo sapiens, UniProt Q15116)"
  IC50 (µM): 0.39

Next:
**Query** Consider the molecule COc1cccc(C[C@@H]2NC(=O)[C@H](Cc3ccccc3)NC(=O)CSC[C@@H](C(=O)N[C@@H](C)C(N)=O)NC(=O)[C@H](CO)NC(=O)[C@H](C(C)C)NC(=O)[C@H](CC(C)C)NC(=O)[C@H](CC(N)=O)NC(=O)[C@H]3CCCN3C(=O)[C@H](C)N(C)C(=O)[C@H](C(C)C)NC(=O)[C@H](Cc3ccc(-c4ccccc4)cc3)NC(=O)[C@H](CC(C)C)NC(=O)[C@H](Cc3c[nH]c4ccccc34)NC(=O)[C@H](CC(=O)O)NC2=O)c1 [Example 1055] ({CH2CO}-F[Phe(3-OMe)]DWL[Bip]V[NMeA][dP]NLVSCA-NH2; thioether N-14) and give its measured IC50.
**Result** 0.12

----------
Biological target: human PD-1 (Jurkat-PD-1 cells) / PE-labeled human PD-L1-Ig (Homo sapiens)
Construct: expressed in transfected cells; host or cells: Jurkat cell line over-expressing human PD-1
Assay: Jurkat-PD-1 Cell Binding High-Content Screening Assay (CBA); Jurkat hPD1-PDL1 assay
Settings: Jurkat cell line over-expressing human PD-1; PE-labeled PD-L1-Ig 20 nM final; compound incubated 2 hours at 37° C.; read-out: Jurkat HPD1-PDL1 IC50
Positions of bridges follow the written chain, without caps; N, C: chain ends. Non-standard residues stand in square brackets, D forms with d. Residues, ends and D or L forms follow the SMILES beside them. Phe(4-COOH) = N[C@@H](Cc1ccc(C(=O)O)cc1)C(=O)O; Bip = N[C@@H](Cc1ccc(-c2ccccc2)cc1)C(=O)O; NMeF = CN[C@@H](Cc1ccccc1)C(=O)O; hArg = N=C(N)NCCCC[C@H](N)C(=O)O; Cha = N[C@@H](CC1CCCCC1)C(=O)O; dPip = O=C(O)[C@H]1CCCCN1; NMeA = CN[C@@H](C)C(=O)O; Sar = CNCC(=O)O
REPORTED ENDPOINT: pIC50
Keep it numeric: pIC50 is minus log10 of the concentration in mol/L.

The cases that follow already have their pIC50 on record.
- COMPOUND: "CC(C)C[C@@H]1NC(=O)[C@H](Cc2c[nH]c3ccccc23)NC(=O)[C@H](CC(=O)O)NC(=O)[C@H](Cc2ccc(C(=O)O)cc2)NC(=O)[C@H](CC(N)=O)NC(=O)CSC[C@@H](C(=O)N[C@@H](C)C(N)=O)NC(=O)[C@H](CO)NC(=O)[C@H](C(C)C)NC(=O)[C@H](CC(C)C)NC(=O)[C@H](CC(N)=O)NC(=O)[C@H]2CCCN2C(=O)[C@H](C)N(C)C(=O)[C@H](C(C)C)NC(=O)[C@H](Cc2ccc(-c3ccccc3)cc2)NC1=O [Example 1059] ({CH2CO}-N[Phe(4-COOH)]DWL[Bip]V[NMeA][dP]NLVSCA-NH2; thioether N-14)"
  TEST RESULT: 6.85
- COMPOUND: "CC(C)C[C@@H]1NC(=O)[C@H](Cc2c[nH]c3ccccc23)NC(=O)[C@H](CC(=O)O)NC(=O)[C@H](Cc2ccc(O)cc2)NC(=O)[C@H](Cc2ccccc2)NC(=O)CSC[C@@H](C(=O)N[C@@H](C)C(N)=O)NC(=O)[C@H](CO)NC(=O)[C@H](C(C)C)NC(=O)[C@H](CC(C)C)NC(=O)[C@H](CC(N)=O)NC(=O)[C@H]2CCCCN2C(=O)[C@H]2CCCN2C(=O)[C@H](C(C)C)NC(=O)[C@H](Cc2ccc(-c3ccccc3)cc2)NC1=O [Example 1006] ({CH2CO}-FYDWL[Bip]V[dP][dPip]NLVSCA-NH2; thioether N-14)"
  TEST RESULT: 7.40
- COMPOUND: "CC(C)C[C@@H]1NC(=O)[C@H](Cc2c[nH]c3ccccc23)NC(=O)[C@H](CC(=O)O)NC(=O)[C@H](Cc2ccc(O)cc2)NC(=O)[C@H](Cc2ccccc2)NC(=O)CSC[C@@H](C(=O)N[C@@H](C)C(N)=O)NC(=O)[C@H]([C@@H](C)O)NC(=O)[C@H](C(C)C)NC(=O)[C@H](CC(C)C)NC(=O)[C@H](CC(N)=O)NC(=O)[C@H]2CCCN2C(=O)[C@H](C)N(C)C(=O)[C@H](C(C)C)NC(=O)[C@H](Cc2ccc(-c3ccccc3)cc2)NC1=O [Example 1050] ({CH2CO}-FYDWL[Bip]V[NMeA][dP]NLVTCA-NH2; thioether N-14)"
  TEST RESULT: 6.96
- COMPOUND: "CC(C)C[C@@H]1NC(=O)[C@H](CCCNC(=N)N)NC(=O)[C@H](Cc2ccccc2)N(C)C(=O)[C@H](C)N(C)C(=O)[C@H](CCCCNC(=N)N)NC(=O)[C@H](Cc2ccc(-c3ccccc3)cc2)NC(=O)[C@H](C(C)C)NC(=O)[C@H](Cc2c[nH]c3ccccc23)NC(=O)[C@H](CC(=O)O)NC(=O)[C@H](Cc2ccc(O)cc2)NC(=O)[C@H](Cc2ccccc2)NC(=O)CSC[C@@H](C(=O)NCC(N)=O)NC(=O)[C@H](CO)NC(=O)[C@H](C(C)C)NC1=O [Example 1244] ({CH2CO}-FYDWV[Bip][hArg][NMeA][NMeF]RLVSCG-NH2; thioether N-14)"
  TEST RESULT: 6.72
- COMPOUND: "CC(C)C[C@@H]1NC(=O)[C@H](CCCNC(=N)N)NC(=O)[C@H](Cc2ccccc2)N(C)C(=O)[C@H](C)N(C)C(=O)[C@H](CCCNC(=N)N)NC(=O)[C@H](Cc2ccc(-c3ccccc3)cc2)NC(=O)[C@H](C(C)C)NC(=O)[C@H](Cc2c[nH]c3ccccc23)NC(=O)[C@H](CC(=O)O)NC(=O)[C@H](Cc2ccc(O)cc2)NC(=O)[C@H](CC2CCCCC2)NC(=O)CSC[C@@H](C(=O)NCC(N)=O)NC(=O)[C@H](CO)NC(=O)[C@H](C(C)C)NC1=O [Example 1248] ({CH2CO}-[Cha]YDWV[Bip]R[NMeA][NMeF]RLVSCG-NH2; thioether N-14)"
  TEST RESULT: 6.44

**Query** Request body: readout pIC50, system human PD-1 (Jurkat-PD-1 cells) / PE-labeled human PD-L1-Ig (Homo sapiens), query CC(C)C[C@@H]1NC(=O)[C@H](Cc2c[nH]c3ccccc23)NC(=O)[C@H](CC(=O)O)NC(=O)[C@H](Cc2ccc(O)cc2)NC(=O)[C@H](Cc2ccccc2)NC(=O)CSC[C@@H](C(=O)N[C@H](C)C(N)=O)NC(=O)[C@H](CO)NC(=O)[C@H](C(C)C)NC(=O)[C@H](CC(C)C)NC(=O)[C@H](CC(N)=O)NC(=O)CN(C)C(=O)[C@H](C)N(C)C(=O)[C@H](C(C)C)NC(=O)[C@H](Cc2ccc(-c3ccccc3)cc2)NC1=O [Example 1151] ({CH2CO}-FYDWL[Bip]V[NMeA][Sar]NLVSC[dA]-NH2; thioether N-14) . Return the value.
**Result** 6.15

**Query** Ok, now CC(C)C[C@@H]1NC(=O)[C@H](Cc2c[nH]c3ccccc23)NC(=O)[C@H](CC(=O)O)NC(=O)[C@H](Cc2cnc[nH]2)NC(=O)[C@H](Cc2ccccc2)NC(=O)CSC[C@@H](C(=O)NCC(N)=O)NC(=O)[C@H](CO)NC(=O)[C@H](C(C)C)NC(=O)[C@H](CC(C)C)NC(=O)[C@H](CC(N)=O)NC(=O)CN(C)C(=O)[C@H](C)N(C)C(=O)[C@H](C(C)C)NC(=O)[C@H](Cc2ccc(-c3ccccc3)cc2)NC1=O [Example 1153] ({CH2CO}-FHDWL[Bip]V[NMeA][Sar]NLVSCG-NH2; thioether N-14)
**Result** 6.12

**Query** Thanks! And CC(C)C[C@@H]1NC(=O)[C@H](CCCNC(=N)N)NC(=O)[C@H](Cc2ccccc2)N(C)C(=O)[C@H](C)N(C)C(=O)[C@H](CCCNC(=N)N)NC(=O)[C@H](Cc2ccc(-c3ccccc3)cc2)NC(=O)[C@H](C(C)C)NC(=O)[C@H](Cc2c[nH]c3ccccc23)NC(=O)[C@H](CC(=O)O)NC(=O)[C@H](Cc2ccc(O)cc2)NC(=O)[C@H](CCC(N)=O)NC(=O)CSC[C@@H](C(=O)N[C@@H](C)C(N)=O)NC(=O)[C@H](CO)NC(=O)[C@H](C(C)C)NC1=O [Example 1296] ({CH2CO}-QYDWV[Bip]R[NMeA][NMeF]RLVSCA-NH2; thioether N-14) ?
**Result** 6.85
